# protocol text: protein stability index of a GFP-peptide fusion (yeast GPS) (PSI 1-4); higher = more stable; sorted into four equal gates, so the index is relative within each strain
# experimental context: doa10∆
result type: protein stability index
Hey, just send me the number, nothing else.

EKPDNSNHNNLNLNNSE [SNF2]: 3.02

Query: Which protein stability index value belongs to YQVEYAFKATNQTNINS [SCL1] ?
Response: 2.97

Query: Which protein stability index value belongs to KSRPDRPKPVSPPCYII [SNF5] ?
Response: 2.93

Query: Which protein stability index value belongs to NPEEVEQVAEEAAAAEE [RPS0B] ?
Response: 3.07

Query: Which protein stability index value belongs to SSFNFNKNLPFVWLSSE [SWI1] ?
Response: 3.05

Query: Which protein stability index value belongs to NQFLKIKKKRKELFEKT [SMC1] ?
Response: 3.06

* * *

# protocol text: protein stability index of a GFP-peptide fusion (yeast GPS) (PSI 1-4); higher = more stable; sorted into four equal gates, so the index is relative within each strain
# experimental context: doa10∆
result type: protein stability index
Hey, just send me the number, nothing else.

Field: example entries. Status: answers known.
TSDNLLTITKAAGANVD [RPP1B]: 1.97
GVHDGEVEPALLLLQDY [RPN1]: 3.13

// next entry
Query: Which protein stability index value belongs to SSEGFYSKIKHLGLDDP [SIR2] ?
Response: 1.83

* * *

The following sequences are shown together with reported protein stability index values.
# protocol text: protein stability index of a GFP-peptide fusion (yeast GPS) (PSI 1-4); higher = more stable; sorted into four equal gates, so the index is relative within each strain
# experimental context: ubr1∆
Hey, just send me the number, nothing else.

Field: example entries. Status: answers known.
LEVGRRFSPDEDFEHNN [MCD1]: 3.45
TESIALSSMRFKPSQEP [RRI1]: 2.86
MDFLNSMENTPKVPVSA [GAL11]: 2.37

Query: Which protein stability index value belongs to VSKKWAAAAVCEKWAAS [RPL14A] ?
Response: 2.17

Query: Which protein stability index value belongs to GSNVLKSGKTIVITSIT [RRP43] ?
Response: 2.33

Query: Which protein stability index value belongs to TAAEKKERLTKEAAAIA [RPL8B] ?
Response: 2.33

* * *

# protocol text: protein stability index of a GFP-peptide fusion (yeast GPS) (PSI 1-4); higher = more stable; sorted into four equal gates, so the index is relative within each strain
# experimental context: doa10∆
result type: protein stability index
Hey, just send me the number, nothing else.

Field: example entries. Status: answers known.
GRGGSGWKPYYKLFIWL [YML031W/NDC1]: 1.5
EVAVPDRVAKVLTYPEK [RPO31]: 2.97
EGHDWKAPTKLDDPEAV [DIS3]: 3.31
GDSGISPEESKARSPGI [SIR4]: 3.52
GYVETPRGLRSLTTVWA [RPL3]: 1.75
LTSVTRHGFNRSNTGAL [RPO21]: 2.48
HPTVVDAIDNSDEITQD [IRR1]: 3.22
FISSNDAFNMLSLTTVP [SNF6]: 1.7
DSYLILDTLPSEFDSRV [RPT5]: 2.83
SLGSSSTTASGTTATGT [YGR119C/NUP57]: 3.08

Query: Which protein stability index value belongs to FDPVYTTVITVFLEFSL [YML103C/NUP188] ?
Response: 1.45

Query: Which protein stability index value belongs to RRLPMTMFTAEQSELLK [SNF2] ?
Response: 2.99

Where do the numbers come from? From the supplement of paper PMC9732359.
